Test: Evaluation of conversion rate to active form in buffer solution (Experimental Example 1)
Format: physicochemical
Conditions: pH7.4, 1 hr
observable: Production rate of Alvocidib (%)

Use these answered entries as a reference point.
// sample CN1CC[C@H](c2c(O)cc(O)c3c(=O)cc(-c4ccccc4Cl)oc23)[C@H](OC(=O)[C@@H](N)CO)C1 [Comparative Example 9, reference compound] , its Production rate of Alvocidib was 29.7

// sample C[C@H](N)C(=O)O[C@@H]1CN(C)CC[C@@H]1c1c(O)cc(O)c2c(=O)cc(-c3ccccc3Cl)oc12 [Comparative Example 7, reference compound] , its Production rate of Alvocidib was 63.5

a = CN1CC[C@H](c2c(O)cc(O)c3c(=O)cc(-c4ccccc4Cl)oc23)[C@H](OC(=O)CN)C1 [Comparative Example 8, reference compound]
b = CCNC(=O)O[C@@H]1CN(C)CC[C@@H]1c1c(O)cc(O)c2c(=O)cc(-c3ccccc3Cl)oc12 [Comparative Example 4, reference compound]
c = CNC(=O)O[C@@H]1CN(C)CC[C@@H]1c1c(O)cc(O)c2c(=O)cc(-c3ccccc3Cl)oc12 [Comparative Example 5, reference compound]
d = CC(C)[C@H](N)C(=O)O[C@@H]1CN(C)CC[C@@H]1c1c(O)cc(O)c2c(=O)cc(-c3ccccc3Cl)oc12 [Comparative Example 10, reference compound]
e = CCC(=O)O[C@@H]1CN(C)CC[C@@H]1c1c(O)cc(O)c2c(=O)cc(-c3ccccc3Cl)oc12 [Comparative Example 6]
Please give the order of these molecules when sorted by Production rate of Alvocidib, largest value leading. To answer, arrange all of the labels according to the requested order.
a, d, e, b, c
(a: 47.4%, d: 7.5%, e: 4.5%, b: 1.7%, c: 0.0%)
